Tested on: isolated rat hearts
Assay: Reperfusion-induced arrhythmia in isolated rat hearts (Langendorff) subjected to 40-min global ischemia
Set-up: species or system Wistar rats
Conditions: 40-min ischemia, 50 min reperfusion, drug 1 μM in K-H solution, mean ± SEM
attributeMeasured: Duration VT (ventricular tachycardia) (s)
Give the number; s is assumed, so skip it.

*Q* GET /values?readout=Duration VT (ventricular tachycardia)&item= `N=C(N)c1cccc(CN(NS(=O)(=O)c2ccc3ccccc3c2)C(=O)N2CCCCCC2)c1`
*A* 87.2

*Q* Now try `N/C(=N\O)c1cccc(CN(NS(=O)(=O)c2ccc3ccccc3c2)C(=O)N2CCCCCC2)c1` .
*A* 60.0

*Q* Can you handle CC1CNc2c(cccc2S(=O)(=O)N[C@@H](CCCNC(=N)N)C(=O)N2CC[C@@H](C)C[C@@H]2C(=O)O)C1 (stereo partly shown) [Argatroban, argatroban, reference compound] next?
*A* 828.7

*Q* Next up: `N=C(N)c1cccc(CN(NS(=O)(=O)Cc2ccccc2F)C(=O)N2CCCCCC2)c1`
*A* 99.5
